Every entry's value here was drawn from the supplement of paper PMC9170038.

- Test system: MS2 coat protein
- EXPERIMENT NOTES: apparent KD of MS2 coat protein; designed switch direction (-1 OFF switch, 1 ON switch): -1; higher = weaker reporter binding
- DETAILS: input ligand: none
ENDPOINT NAME: apparent KD of MS2 coat protein (nM)

>  <SEQUENCE INPUT>
CUCAUGUGAGGAUAUGUGAUCUGCUUUCUGUGUAGAUGAUCACAGAAGGCACAUGAGGAUCACCCAUGUAGAUC [Ex4 - 3 - 28] (Eterna round: R96, puzzle: Exclusion 4)

>  <ENDPOINT NAME>
apparent KD of MS2 coat protein

>  <READOUT NUMBER>
91

$$$$
>  <SEQUENCE INPUT>
ACACCGCAAGGAUAUACUUGCGGUGGUGUUCGAAGCUUUCUACUUGAGGAUCACCCAAGUAGAAGGUGCGGUGU [jl-ex2.4.73 ViennaUCT mod] (Eterna round: R97, puzzle: Exclusion 2)

>  <ENDPOINT NAME>
apparent KD of MS2 coat protein

>  <READOUT NUMBER>
12.3

$$$$
>  <SEQUENCE INPUT>
GCAGAUCACGUGAGGAUAUCGUCUACCUCGGUAGUCGAGAAGGCACAUGAGGAUCACCCAUGUGAGUGAUCUGC [Omei Ex4B B2] (Eterna round: R97, puzzle: Brourd's mod of Exclusion 4)

>  <ENDPOINT NAME>
apparent KD of MS2 coat protein

>  <READOUT NUMBER>
17.6

$$$$
>  <SEQUENCE INPUT>
AUCGUGCAGCAAAGCUGUACGAGUACAUGAGGAUCACCCAUGUAGGAUAUGGUACGCAAAGCGUGCUAGAAGGAUAUGAGAUUU [Mat - Exclusion NG 3 - Mod of JL - D100] (Eterna round: R96, puzzle: Exclusion NG 3)

>  <ENDPOINT NAME>
apparent KD of MS2 coat protein

>  <READOUT NUMBER>
45.2

$$$$
>  <SEQUENCE INPUT>
GUGUACAGAGGAUAUAUAUGAGCAUGGAAACAUGCAAGAUCACAUGAGGAUCACCCAUGUAGAAGGCUGUACAC [Ex2: 736] (Eterna round: R96, puzzle: Exclusion 2)

>  <ENDPOINT NAME>
apparent KD of MS2 coat protein

>  <READOUT NUMBER>
112

$$$$
>  <SEQUENCE INPUT>
ACCUAACAUGAGGAUCACCCAUGUGAGGAUAUGUACAUCGGCUCGCGAAAGUGACCGAACAGAAGGUACAUGGU [EX1 A.26] (Eterna round: R97, puzzle: Exclusion 1)

>  <ENDPOINT NAME>
apparent KD of MS2 coat protein

>  <READOUT NUMBER>
19.1

$$$$
>  <SEQUENCE INPUT>
GAGUACUGAGGAUAUACAUGAGGAUCACCCAUGUGUUCCAACUAGGAAUCUAGAGUAUGUAGAAGGCAGUGCUG [salish99_ex3_r4_704] (Eterna round: R97, puzzle: Exclusion 3)

>  <ENDPOINT NAME>
apparent KD of MS2 coat protein

>  <READOUT NUMBER>
130

$$$$
>  <SEQUENCE INPUT>
UCGAUGUGAGGAUAUAACAGGACGAACUCUUAAUAGUACGGUUAGAAGGCACAUGAGGAUCACCCAUGUGACGA [EX4 B.27] (Eterna round: R97, puzzle: Exclusion 4)

>  <ENDPOINT NAME>
apparent KD of MS2 coat protein

>  <READOUT NUMBER>
17.7

$$$$
>  <SEQUENCE INPUT>
AUGGUUAGGUCAGGAUAUCGUUGAUUGAAUAGUAUGAUUUACAUGAGGAUCACCCAUGUUAUAUACGAGAAGGGACUUUAUCAU [JR_ExcNG2_Sub023] (Eterna round: R96, puzzle: Exclusion NG 2)

>  <ENDPOINT NAME>
apparent KD of MS2 coat protein

>  <READOUT NUMBER>
18.6

$$$$
>  <SEQUENCE INPUT>
AGUCCUGGAGUUAGGAUAUGGAGUAUCACUGCACUUCAGAAGGGACUUGAGGAUCACCCAAGUAGCCGUGAGGG [salish99_bmod_ex4_r4_004] (Eterna round: R97, puzzle: Brourd's mod of Exclusion 4)

>  <ENDPOINT NAME>
apparent KD of MS2 coat protein

>  <READOUT NUMBER>
49.2

$$$$
